Percent Inhibition of gastric acid secretion values for the compounds below.
test system: gastric acid secretion; test: inhibition of gastric acid secretion (pylorus-ligated rat, Shay rat); type: in vivo, rats (male, CFE strain); details: intraduodenal dose 100 mg./kg. body weight, 3 hours, 20% or more considered active
measure_name: Percent Inhibition of gastric acid secretion (%)

compound: CCCCCC/C=C/[C@H]1CCC(=O)[C@@H]1CCCCCCC(=O)NCCCN(C)C (relative stereo)
recorded_value: 76

compound: CCCCCC/C=C/[C@H]1CCC(=O)[C@@H]1CCCCCCC(=O)N1CCN(C)CC1 (relative stereo)
recorded_value: 36

compound: CCC/C=C/[C@H]1CCC(=O)[C@@H]1CCCCCCC(=O)NCCCN(C)C (relative stereo)
recorded_value: 87

compound: CCCCCC/C=C/[C@H]1CCC(O)[C@@H]1CCCCCCC(=O)NCCCN(C)C (stereo partly drawn)
recorded_value: 85

compound: CCCCCC/C=C/[C@H]1CCC(=O)[C@@H]1CCCCCCC(=O)NO (relative stereo)
recorded_value: 38

compound: CCCCCC/C=C/[C@H]1CCC(=O)[C@@H]1CCCCCCC(=O)NN(C)C (relative stereo)
recorded_value: 58

----------
System: diastolic blood pressure
Assay: hypotensive activity in anesthetized rats (minimal dose lowering diastolic blood pressure about 10 mm.)
Type: in vivo, Male Wistar strain rats
Conditions: Rattus norvegicus; intravenous; dose producing a decrease of about 10 mm. in diastolic blood pressure
Protocol: This procedure is a modification of the technique described by Pike et al., Prostaglandins, Nobel Symposium 2, Stockholm, June, 1966; p. 165. Male Wistar strain rats (Royal Hart Farms) averaging approximately 250 grams in weight were fastened to rat boards in a supine position by means of canvas vests and limb ties. […] Arterial blood pressure (systolic/diastolic) was recorded using a Statham P23 Db pressure transducer-Offner dynograph system. […]
compounds and their reported minimal effective dose

compound: CCCCCC/C=C/[C@H]1CCC(=O)[C@@H]1CCCCCCC(=O)NCCO (relative stereo)
minimal effective dose, mg/kg: 0.4
//
compound: CCCCCC/C=C/[C@H]1CCC(=O)[C@@H]1CCCCCCC(N)=O (relative stereo) [9-oxo-13-trans-prostenamide]
minimal effective dose, mg/kg: 2
//
compound: CCCCCC/C=C/[C@H]1CCC(=O)[C@@H]1CCCCCCC(=O)NO (relative stereo)
minimal effective dose, mg/kg: 2
//
compound: CCCCCC/C=C/[C@H]1CCC(=O)[C@@H]1CCCCCCC(=O)NCCCN(C)C (relative stereo)
minimal effective dose, mg/kg: 0.4
//
compound: CCCCCC/C=C/[C@H]1CCC(=O)[C@@H]1CCCCCCC(=O)NN(C)C (relative stereo)
minimal effective dose, mg/kg: 2
//
compound: CCCCCC/C=C/[C@H]1CCC(=O)[C@@H]1CCCCCCC(=O)N1CCOCC1 (relative stereo)
minimal effective dose, mg/kg: 1
//
compound: CCCCCC/C=C/[C@H]1CCC(=O)[C@@H]1CCCCCCC(=O)N1CCCC1 (relative stereo)
minimal effective dose, mg/kg: 8

----------
// each record: one item and its MIC for Microsporum gypseum ATCC 14683
measure_name: MIC (µg/mL)

compound: CCCCCC/C=C/[C@H]1CCC(=O)[C@@H]1CCCCCCC(=O)N1CCN(C)CC1 (relative stereo)
measure_name: MIC
recorded_value: 25
--
compound: CCCCCC/C=C/[C@H]1CCC(=O)[C@@H]1CCCCCCC(=O)NN(C)C (relative stereo)
measure_name: MIC
recorded_value: 25
--
compound: CCCCCC/C=C/[C@H]1CCC(=O)[C@@H]1CCCCCCC(=O)NO (relative stereo)
measure_name: MIC
recorded_value: 250

----------
test system: Trichophyton rubrum E 97
measure_name: MIC (µg/mL)

compound: CCCCCC/C=C/[C@H]1CCC(=O)[C@@H]1CCCCCCC(=O)N1CCCC1 (relative stereo)
measure_name: MIC
recorded_value: 25

compound: CCCCCC/C=C/[C@H]1CCC(=O)[C@@H]1CCCCCCC(=O)N1CCN(C)CC1 (relative stereo)
measure_name: MIC
recorded_value: 25

compound: CCCCCC/C=C/[C@H]1CCC(O)[C@@H]1CCCCCCC(=O)NCCCN(C)C (stereo partly drawn)
measure_name: MIC
recorded_value: 250

compound: CCCCCC/C=C/[C@H]1CCC(=O)[C@@H]1CCCCCCC(=O)NCCO (relative stereo)
measure_name: MIC
recorded_value: 25

compound: CCCCCC/C=C/[C@H]1CCC(=O)[C@@H]1CCCCCCC(=O)N(C)C (relative stereo) [N,N-dimethyl-9-oxo-13-trans-prostenamide]
measure_name: MIC
recorded_value: 25

compound: CCCCCC/C=C/[C@H]1CCC(=O)[C@@H]1CCCCCCC(=O)NN(C)C (relative stereo)
measure_name: MIC
recorded_value: 25

----------
test system: Microsporum gypseum ATCC 14683
API: label(entry) gives Condition met if the entry's MIC is strictly smaller than 50 µg/mL; on equality or larger values it gives Condition not met.

compound: CCCCCC/C=C/[C@H]1CCC(O)[C@@H]1CCCCCCC(=O)NCCCN(C)C (stereo partly shown)
group: Condition not met
//
compound: CCCCCC/C=C/[C@H]1CCC(=O)[C@@H]1CCCCCCC(=O)N1CCCC1 (relative stereo)
group: Condition met
//
compound: CCCCCC/C=C/[C@H]1CCC(=O)[C@@H]1CCCCCCC(=O)N(C)C (relative stereo) [N,N-dimethyl-9-oxo-13-trans-prostenamide]
group: Condition met
//
compound: CCCCCC/C=C/[C@H]1CCC(=O)[C@@H]1CCCCCCC(=O)NCCO (relative stereo)
group: Condition met
//
compound: CCCCCC/C=C/[C@H]1CCC(=O)[C@@H]1CCCCCCC(=O)NCCCN(C)C (relative stereo)
group: Condition not met

----------
test system: diastolic blood pressure; experiment: hypotensive activity in anesthetized rats (minimal dose lowering diastolic blood pressure about 10 mm.); assay type: in vivo, Male Wistar strain rats; conditions: Rattus norvegicus; intravenous; dose producing a decrease of about 10 mm. in diastolic blood pressure

compound: CCCCCC/C=C/[C@H]1CCC(O)[C@@H]1CCCCCCC(=O)NCCCN(C)C (stereo partly shown)
minimal effective dose: 0.2 mg/kg

compound: CCCCCC/C=C/[C@H]1CCC(=O)[C@@H]1CCCCCCC(=O)N1CCN(C)CC1 (relative stereo)
minimal effective dose: 4 mg/kg

compound: CCCCCC/C=C/[C@H]1CCC(=O)[C@@H]1CCCCCCC(=O)N(C)C (relative stereo) [N,N-dimethyl-9-oxo-13-trans-prostenamide]
minimal effective dose: 2 mg/kg

compound: CCCCCC/C=C/[C@H]1CCC(=O)[C@@H]1CCCCCCC(=O)N1CCN(c2ccccc2)CC1 (relative stereo)
minimal effective dose: 8 mg/kg

----------
Observed MIC values for Trichophyton rubrum E 97 are listed in what follows.

compound: CCCCCC/C=C/[C@H]1CCC(=O)[C@@H]1CCCCCCC(=O)NCCCN(C)C (relative stereo)
MIC (µg/mL): 100

compound: CCCCCC/C=C/[C@H]1CCC(=O)[C@@H]1CCCCCCC(=O)NC (relative stereo) [N-methyl-9-oxo-13-trans-prostenamide]
MIC (µg/mL): 100

compound: CCCCCC/C=C/[C@H]1CCC(=O)[C@@H]1CCCCCCC(N)=O (relative stereo) [9-oxo-13-trans-prostenamide]
MIC (µg/mL): 50

compound: CCCCCC/C=C/[C@H]1CCC(=O)[C@@H]1CCCCCCC(=O)NO (relative stereo)
MIC (µg/mL): 250
